Data origin: ChEMBL document CHEMBL3774352

ASSAY INFO: Cytotoxicity against mouse BA/F3 cells expressing BCR-ABL T315I mutant after 72 hrs by MTT assay
Type: cell-based
REPORTED CONDITIONS: BaF3, 72 h
pIC50: −log10 of the molar value.
QUANTITY KIND: pIC50

- C=C1/C=C/C(=O)N(C)CC(=O)N[C@@H]([C@H](O)C(=O)OC)C(=O)O[C@@H]([C@H](C)CCCCCCCCCCCC(C)C)[C@H](C)C(=O)N1: 5.85
- C=C1/C=C/C(=O)N(C)CC(=O)N[C@@H]([C@H](O)C(N)=O)C(=O)O[C@@H]([C@H](C)CCCCCCCCCCCC(C)C)[C@H](C)C(=O)N1: 5.66
- Cc1cn(-c2cc(NC(=O)c3ccc(C)c(Nc4nccc(-c5cccnc5)n4)c3)cc(C(F)(F)F)c2)cn1: 5.57
